Documented EC50 across a set of molecules
molecular target: human AT1R (Homo sapiens); assay: beta-arrestin2 recruitment assay (PathHunter), human AT1R; type: cell-based; conditions: read-out: pEC50 (converted)
Sequence (P30556 whole entry): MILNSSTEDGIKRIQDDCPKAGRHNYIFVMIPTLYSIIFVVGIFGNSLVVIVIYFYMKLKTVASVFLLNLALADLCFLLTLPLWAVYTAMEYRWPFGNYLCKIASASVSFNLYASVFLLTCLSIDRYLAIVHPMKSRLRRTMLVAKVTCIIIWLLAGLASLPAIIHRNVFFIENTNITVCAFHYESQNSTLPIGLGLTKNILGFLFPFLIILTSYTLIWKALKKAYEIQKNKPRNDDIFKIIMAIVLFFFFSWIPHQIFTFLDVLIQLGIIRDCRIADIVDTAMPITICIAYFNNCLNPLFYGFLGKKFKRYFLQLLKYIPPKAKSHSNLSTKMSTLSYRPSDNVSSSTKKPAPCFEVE
Where a SMILES comes first, the peptide text is derived from it. [ ]: non-standard residue; d: D form. Ac6c = NC1(C(=O)O)CCCCC1; Aib = CC(C)(N)C(=O)O; Sar = CNCC(=O)O

{"MOLECULE": "CNCC(=O)N[C@@H](CCCNC(=N)N)C(=O)N[C@H](C(=O)N[C@@H](Cc1ccc(O)cc1)C(=O)NC1(C(=O)N[C@@H](Cc2c[nH]cn2)C(=O)N2CCC[C@H]2C(=O)N[C@@H](CCCCN)C(=O)O)CCCCC1)C(C)C [SEQ ID NO: 50, Sar-Arg-Val-Tyr-cyHex-His-Pro-Lys] (H-[Sar]RVY[Ac6c]HPK-OH)", "EC50": "> 3.16 nM"}
{"MOLECULE": "CNCC(=O)N[C@@H](CCCNC(=N)N)C(=O)N[C@H](C(=O)N[C@@H](Cc1ccc(O)cc1)C(=O)NC1(C(=O)N[C@@H](Cc2c[nH]cn2)C(=O)N2CCC[C@H]2C(=O)NC(C)(C)C(=O)O)CCCCC1)C(C)C [SEQ ID NO: 35, Sar-Arg-Val-Tyr-cyHex-His-Pro-AA01] (H-[Sar]RVY[Ac6c]HP[Aib]-OH)", "EC50": "> 3.16 nM"}

###

biological target: rat AT1aR (Rattus norvegicus, UniProt P25095); test: beta-arrestin2 recruitment assay (PathHunter), rat AT1aR; assay type: cell-based; details: read-out: EC50
Sequence (P25095 whole entry): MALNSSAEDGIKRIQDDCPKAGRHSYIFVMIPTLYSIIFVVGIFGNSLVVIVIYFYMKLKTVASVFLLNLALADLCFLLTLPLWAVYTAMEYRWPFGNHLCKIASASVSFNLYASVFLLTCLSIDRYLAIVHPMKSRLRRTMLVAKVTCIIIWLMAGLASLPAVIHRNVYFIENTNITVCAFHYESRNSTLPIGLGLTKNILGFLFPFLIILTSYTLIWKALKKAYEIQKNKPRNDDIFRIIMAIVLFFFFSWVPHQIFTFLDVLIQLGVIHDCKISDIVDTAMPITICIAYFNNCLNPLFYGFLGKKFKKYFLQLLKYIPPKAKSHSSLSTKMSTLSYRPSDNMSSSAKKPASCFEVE
pEC50: −log10 of the molar value. Where a SMILES comes first, the peptide text is derived from it. [ ]: non-standard residue; d: D form. Ac6c = NC1(C(=O)O)CCCCC1; Ac5c = NC1(C(=O)O)CCCC1; Aib = CC(C)(N)C(=O)O; Sar = CNCC(=O)O

{"COMPOUND": "CNCC(=O)N[C@@H](CCCNC(=N)N)C(=O)N[C@H](C(=O)N[C@@H](Cc1ccc(O)cc1)C(=O)NC(C)(C)C(=O)N[C@@H](Cc1c[nH]cn1)C(=O)N1CCC[C@H]1C(=O)N[C@H](C(=O)O)C(C)C)C(C)C [SEQ ID NO: 33, Sar-Arg-Val-Tyr-AA01-His-Pro-Val] (H-[Sar]RVY[Aib]HPV-OH)", "pEC50": "< 8.49"}
{"COMPOUND": "CNCC(=O)N[C@@H](CCCNC(=N)N)C(=O)N[C@H](C(=O)N[C@@H](Cc1ccc(O)cc1)C(=O)NC1(C(=O)N[C@@H](Cc2c[nH]cn2)C(=O)N2CCC[C@H]2C(=O)N[C@H](C(=O)O)C(C)C)CCCCC1)C(C)C [SEQ ID NO: 13, Sar-Arg-Val-Tyr-cyHex-His-Pro-Val] (H-[Sar]RVY[Ac6c]HPV-OH)", "pEC50": "< 8.49"}
{"COMPOUND": "CNCC(=O)N[C@@H](CCCNC(=N)N)C(=O)N[C@H](C(=O)N[C@@H](Cc1ccc(O)cc1)C(=O)NC1(C(=O)N[C@@H](Cc2c[nH]cn2)C(=O)N2CCC[C@H]2C(=O)N[C@H](C)C(=O)O)CCCCC1)C(C)C", "pEC50": "< 8.49"}
{"COMPOUND": "CNCC(=O)N[C@@H](CCCNC(=N)N)C(=O)N[C@H](C(=O)N[C@@H](Cc1ccc(O)cc1)C(=O)NC1(C(=O)N[C@@H](Cc2c[nH]cn2)C(=O)N2CCC[C@H]2C(=O)N[C@H](C)C(=O)O)CCCC1)C(C)C", "pEC50": "< 8.49"}
{"COMPOUND": "CCNC(=O)[C@@H]1CCCN1C(=O)[C@H](Cc1c[nH]cn1)NC(=O)C1(NC(=O)[C@H](Cc2ccc(O)cc2)NC(=O)[C@@H](NC(=O)[C@H](CCCNC(=N)N)NC(=O)CNC)C(C)C)CCCCC1 [SEQ ID NO: 48, Sar-Arg-Val-Tyr-cyHex-His-Pro-NH-ethyl] (H-[Sar]RVY[Ac6c]HP-NHEt)", "pEC50": "< 8.49"}
{"COMPOUND": "CNCC(=O)N[C@@H](CCCNC(=N)N)C(=O)N[C@H](C(=O)N[C@@H](Cc1ccc(O)cc1)C(=O)NC1(C(=O)N[C@@H](Cc2c[nH]cn2)C(=O)N2CCC[C@H]2C(=O)N[C@@H](CCSC)C(=O)O)CCCCC1)C(C)C [SEQ ID NO: 16, Sar-Arg-Val-Tyr-cyHex-His-Pro-Met] (H-[Sar]RVY[Ac6c]HPM-OH)", "pEC50": "< 8.49"}
{"COMPOUND": "CNCC(=O)N[C@@H](CCCNC(=N)N)C(=O)N[C@H](C(=O)N[C@@H](Cc1ccc(O)cc1)C(=O)NC1(C(=O)N[C@@H](Cc2c[nH]cn2)C(=O)N2CCC[C@H]2C(=O)N[C@@H](CO)C(=O)O)CCCCC1)C(C)C [SEQ ID NO: 15, Sar-Arg-Val-Tyr-cyHex-His-Pro-Ser] (H-[Sar]RVY[Ac6c]HPS-OH)", "pEC50": "< 8.49"}
{"COMPOUND": "CNCC(=O)N[C@@H](CCCNC(=N)N)C(=O)N[C@H](C(=O)N[C@@H](Cc1ccc(O)cc1)C(=O)NC1(C(=O)N[C@@H](Cc2c[nH]cn2)C(=O)N2CCC[C@H]2C(=O)N[C@@H](Cc2ccccc2)C(=O)O)CCCCC1)C(C)C [SEQ ID NO: 17, Sar-Arg-Val-Tyr-cyHex-His-Pro-Phe] (H-[Sar]RVY[Ac6c]HPF-OH; N-terminus and C-terminus assumed)", "pEC50": 8.49}
{"COMPOUND": "CNCC(=O)N[C@@H](CCCCN)C(=O)N[C@H](C(=O)N[C@@H](Cc1ccc(O)cc1)C(=O)NC1(C(=O)N[C@@H](Cc2c[nH]cn2)C(=O)N2CCC[C@H]2C(=O)N[C@@H](C)C(=O)O)CCCCC1)C(C)C [SEQ ID NO: 51, Sar-Lys-Val-Tyr-cyHex-His-Pro-Ala] (H-[Sar]KVY[Ac6c]HPA-OH)", "pEC50": "< 8.49"}
{"COMPOUND": "CNCC(=O)N[C@@H](CCCNC(=N)N)C(=O)N[C@H](C(=O)N[C@@H](Cc1ccc(O)cc1)C(=O)NC(C)(C)C(=O)N[C@@H](Cc1c[nH]cn1)C(=O)N1CCC[C@H]1C(=O)N[C@H](C(=O)O)[C@@H](C)O)C(C)C [SEQ ID NO: 40, Sar-Arg-Val-Tyr-AA01-His-Pro-Thr] (H-[Sar]RVY[Aib]HPT-OH)", "pEC50": "< 8.49"}
{"COMPOUND": "CNCC(=O)N[C@@H](CCCNC(=N)N)C(=O)N[C@H](C(=O)N[C@@H](Cc1ccc(O)cc1)C(=O)NC1(C(=O)N[C@@H](Cc2c[nH]cn2)C(=O)N2CCC[C@H]2C(=O)N[C@@H](CCSC)C(=O)O)CCCC1)C(C)C [SEQ ID NO: 23, Sar-Arg-Val-Tyr-cyPen-His-Pro-Met] (H-[Sar]RVY[Ac5c]HPM-OH)", "pEC50": "< 8.49"}
{"COMPOUND": "CNCC(=O)N[C@@H](CCCNC(=N)N)C(=O)N[C@H](C(=O)N[C@@H](Cc1ccc(O)cc1)C(=O)NC1(C(=O)N[C@@H](Cc2c[nH]cn2)C(=O)N2CCC[C@H]2C(=O)NCC(=O)O)CCCCC1)C(C)C [SEQ ID NO: 32, Sar-Arg-Val-Tyr-cyHex-His-Pro-Gly] (H-[Sar]RVY[Ac6c]HPG-OH)", "pEC50": "< 8.49"}
{"COMPOUND": "CNCC(=O)N[C@@H](CCCNC(=N)N)C(=O)N[C@H](C(=O)N[C@@H](Cc1ccc(O)cc1)C(=O)N1CCC[C@H]1C(=O)N[C@@H](Cc1c[nH]cn1)C(=O)N1CCC[C@H]1C(=O)N[C@H](C(=O)O)[C@@H](C)O)C(C)C [SEQ ID NO: 7, Sar-Arg-Val-Tyr-Pro-His-Pro-Thr] (H-[Sar]RVYPHPT-OH)", "pEC50": "< 8.49"}

###

target: rat AT1aR (Rattus norvegicus, UniProt P25095); test: beta-arrestin2 recruitment assay (PathHunter), rat AT1aR; format: cell-based; conditions: 1 h, read-out: Span (relative to hAngII)
Where a SMILES comes first, the peptide text is derived from it. [ ]: non-standard residue; d: D form. Tle = CC(C)(C)[C@H](N)C(=O)O; Ac6c = NC1(C(=O)O)CCCCC1; Ac5c = NC1(C(=O)O)CCCC1; Sar = CNCC(=O)O
Documented Emax across a set of compounds
READOUT_TYPE: Emax

{"COMPOUND": "CNCC(=O)N[C@@H](CCCNC(=N)N)C(=O)N[C@H](C(=O)N[C@@H](Cc1ccc(O)cc1)C(=O)NC1(C(=O)N[C@@H](Cc2c[nH]cn2)C(=O)N2CCC[C@H]2C(=O)N[C@H](C(=O)O)C(C)C)CCCC1)C(C)C [SEQ ID NO: 20, Sar-Arg-Val-Tyr-cyPen-His-Pro-Val] (H-[Sar]RVY[Ac5c]HPV-OH)", "RESULT": "< 105%"}
{"COMPOUND": "CNCC(=O)N[C@@H](CCCNC(=N)N)C(=O)N[C@H](C(=O)N[C@@H](Cc1ccc(O)cc1)C(=O)NC1(C(=O)N[C@@H](Cc2c[nH]cn2)C(=O)N2CCC[C@H]2C(=O)N[C@@H](CCCNC(=N)N)C(=O)O)CCCCC1)C(C)C [SEQ ID NO: 42, Sar-Arg-Val-Tyr-cyHex-His-Pro-Arg] (H-[Sar]RVY[Ac6c]HPR-OH)", "RESULT": "< 105%"}
{"COMPOUND": "CNCC(=O)N[C@@H](CCCNC(=N)N)C(=O)N[C@H](C(=O)N[C@@H](Cc1ccc(O)cc1)C(=O)N1CCC[C@H]1C(=O)N[C@@H](Cc1c[nH]cn1)C(=O)N1CCC[C@H]1C(=O)N[C@H](C)C(=O)O)C(C)C [SEQ ID NO: 60, Sar-Arg-Val-Tyr-Pro-His-Pro-D-Ala] (H-[Sar]RVYPHP[dA]-OH)", "RESULT": "< 105%"}
{"COMPOUND": "CNCC(=O)N[C@@H](CCCNC(=N)N)C(=O)N[C@H](C(=O)N[C@@H](Cc1ccc(O)cc1)C(=O)NC1(C(=O)N[C@@H](Cc2c[nH]cn2)C(=O)N2CCC[C@H]2C(=O)N[C@@H](CC(C)C)C(=O)O)CCCCC1)C(C)C [SEQ ID NO: 12, Sar-Arg-Val-Tyr-cyHex-His-Pro-Leu] (H-[Sar]RVY[Ac6c]HPL-OH)", "RESULT": "< 105%"}
{"COMPOUND": "CNCC(=O)N[C@@H](CCCNC(=N)N)C(=O)N[C@H](C(=O)N[C@@H](Cc1ccc(O)cc1)C(=O)N[C@H](C(=O)N[C@@H](Cc1c[nH]cn1)C(=O)N1CCC[C@H]1C(=O)N[C@H](C(=O)O)[C@@H](C)O)C(C)(C)C)C(C)C [SEQ ID NO: 30, Sar-Arg-Val-Tyr-AA02-His-Pro-Thr] (H-[Sar]RVY[Tle]HPT-OH)", "RESULT": "< 105%"}
{"COMPOUND": "CNCC(=O)N[C@@H](CCCNC(=N)N)C(=O)N[C@H](C(=O)N[C@@H](Cc1ccc(O)cc1)C(=O)NC1(C(=O)N[C@@H](Cc2c[nH]cn2)C(=O)N2CCC[C@H]2C(=O)N[C@H](C)C(=O)O)CCCCC1)C(C)C", "RESULT": "< 105%"}
{"COMPOUND": "CNCC(=O)N[C@@H](CCCNC(=N)N)C(=O)N[C@H](C(=O)N[C@@H](Cc1ccc(O)cc1)C(=O)NC1(C(=O)N[C@@H](Cc2c[nH]cn2)C(=O)N2CCC[C@H]2C(=O)N[C@@H](CC(C)C)C(=O)O)CCCC1)C(C)C [SEQ ID NO: 19, Sar-Arg-Val-Tyr-cyPen-His-Pro-Leu] (H-[Sar]RVY[Ac5c]HPL-OH)", "RESULT": "< 105%"}
{"COMPOUND": "CNCC(=O)N[C@@H](CCCNC(=N)N)C(=O)N[C@H](C(=O)N[C@@H](Cc1ccc(O)cc1)C(=O)N1CCC[C@H]1C(=O)N[C@@H](Cc1c[nH]cn1)C(=O)N1CCC[C@H]1C(=O)N[C@@H](CC(C)C)C(=O)O)C(C)C [SEQ ID NO: 5, Sar-Arg-Val-Tyr-Pro-His-Pro-Leu] (H-[Sar]RVYPHPL-OH; N-terminus and C-terminus assumed)", "RESULT": "< 105%"}
{"COMPOUND": "CNCC(=O)N[C@@H](CCCCN)C(=O)N[C@H](C(=O)N[C@@H](Cc1ccc(O)cc1)C(=O)NC1(C(=O)N[C@@H](Cc2c[nH]cn2)C(=O)N2CCC[C@H]2C(=O)N[C@@H](C)C(=O)O)CCCCC1)C(C)C [SEQ ID NO: 51, Sar-Lys-Val-Tyr-cyHex-His-Pro-Ala] (H-[Sar]KVY[Ac6c]HPA-OH)", "RESULT": "< 105%"}
{"COMPOUND": "CNCC(=O)N[C@@H](CCCNC(=N)N)C(=O)N[C@H](C(=O)N[C@@H](Cc1ccc(O)cc1)C(=O)NC1(C(=O)N[C@@H](Cc2c[nH]cn2)C(=O)N2CCC[C@H]2C(=O)N[C@@H](C)C(=O)O)CCCC1)C(C)C", "RESULT": "< 105%"}
{"COMPOUND": "CNCC(=O)N[C@@H](CCCNC(=N)N)C(=O)N[C@H](C(=O)N[C@@H](Cc1ccc(O)cc1)C(=O)N[C@H](C(=O)N[C@@H](Cc1c[nH]cn1)C(=O)N1CCC[C@H]1C(=O)N[C@H](C(=O)O)C(C)C)C(C)(C)C)C(C)C [SEQ ID NO: 29, Sar-Arg-Val-Tyr-AA02-His-Pro-Val] (H-[Sar]RVY[Tle]HPV-OH)", "RESULT": "< 105%"}
{"COMPOUND": "CNCC(=O)N[C@@H](CCSC)C(=O)N[C@H](C(=O)N[C@@H](Cc1ccc(O)cc1)C(=O)NC1(C(=O)N[C@@H](Cc2c[nH]cn2)C(=O)N2CCC[C@H]2C(=O)N[C@@H](C)C(=O)O)CCCCC1)C(C)C [SEQ ID NO: 45, Sar-Met-Val-Tyr-cyHex-His-Pro-Ala] (H-[Sar]MVY[Ac6c]HPA-OH; N-terminus and C-terminus assumed)", "RESULT": "< 105%"}
